biological target: 5α-Red1 (5α-reductase 1; SRD5A1) (Rattus norvegicus, UniProt P24008); construct: Srd5a1 in pcDNA1.1, transient expression in COS-1 cells, microsomal fraction; assay: radiometric TLC enzyme assay, transfected COS-1 microsomes
Sequence (P24008 whole entry): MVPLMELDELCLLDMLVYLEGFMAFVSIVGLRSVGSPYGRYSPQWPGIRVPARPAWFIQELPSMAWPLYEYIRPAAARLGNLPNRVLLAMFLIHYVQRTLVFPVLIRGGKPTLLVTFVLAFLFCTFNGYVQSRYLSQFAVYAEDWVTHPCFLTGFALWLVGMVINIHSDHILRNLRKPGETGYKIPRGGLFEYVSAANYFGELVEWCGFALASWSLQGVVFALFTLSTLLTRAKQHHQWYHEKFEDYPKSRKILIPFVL
Measured Metric: pIC50
Answers are plain numbers, as −log10 of the molar value.

Items follow; give pIC50 for each.
1. CC(C)(C)C(=O)C(Oc1ccc(Cl)cc1)n1cncn1 (centres unmarked) [triadimefon]
2. CC(C)(C)C(O)(CCc1ccc(Cl)cc1)Cn1cncn1 (centres unmarked) [tebuconazole]

Given back:
4.76
5.06

* * *

target: RDH2 (retinol dehydrogenase 2) (Rattus norvegicus); construct: gene Rdh16; full-length cDNA in pcDNA1.1, transient expression in COS-1 cells, microsomal fraction; assay: radiometric TLC enzyme assay, transfected COS-1 microsomes; assay type: biochemical; conditions: read-out: 3α-HSD
Measured Metric: IC50

Asked: Item CC(C)(C)C(O)(CCc1ccc(Cl)cc1)Cn1cncn1 (stereo not shown) has what recorded IC50?
Given back: > 100 µM

* * *

molecular target: RDH2 (retinol dehydrogenase 2) (Rattus norvegicus, UniProt P50170); construct: gene Rdh16; full-length cDNA in pcDNA1.1, transient expression in COS-1 cells, microsomal fraction; test: radiometric TLC enzyme assay, transfected COS-1 microsomes; assay type: biochemical; conditions: read-out: RDH2
Sequence (P50170 whole entry): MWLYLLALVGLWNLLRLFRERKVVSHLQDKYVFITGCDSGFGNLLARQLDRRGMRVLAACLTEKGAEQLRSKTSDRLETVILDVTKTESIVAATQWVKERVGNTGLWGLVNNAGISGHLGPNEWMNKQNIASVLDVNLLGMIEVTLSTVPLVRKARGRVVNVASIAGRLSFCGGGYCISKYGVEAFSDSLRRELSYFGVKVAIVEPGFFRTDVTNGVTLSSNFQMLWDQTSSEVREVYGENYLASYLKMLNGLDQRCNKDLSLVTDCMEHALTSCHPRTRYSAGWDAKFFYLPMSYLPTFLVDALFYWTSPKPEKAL
pIC50: −log10 of the molar value.
Measured Metric: pIC50

Asked: Item CC(C)(C)C(=O)C(Oc1ccc(Cl)cc1)n1cncn1 (stereo not shown) [triadimefon] has what recorded pIC50?
Given back: < 4.00

* * *

Consider the following molecules; for each one, report its IC50.
biological target: 3α-HSD (3α-hydroxysteroid dehydrogenase; AKR1C14) (Rattus norvegicus, UniProt P23457); construct: Akr1c14 in pRc/CMV, transient expression in COS-1 cells, cytosolic fraction; assay: radiometric TLC enzyme assay, transfected COS-1 cytosol
Sequence (P23457 whole entry): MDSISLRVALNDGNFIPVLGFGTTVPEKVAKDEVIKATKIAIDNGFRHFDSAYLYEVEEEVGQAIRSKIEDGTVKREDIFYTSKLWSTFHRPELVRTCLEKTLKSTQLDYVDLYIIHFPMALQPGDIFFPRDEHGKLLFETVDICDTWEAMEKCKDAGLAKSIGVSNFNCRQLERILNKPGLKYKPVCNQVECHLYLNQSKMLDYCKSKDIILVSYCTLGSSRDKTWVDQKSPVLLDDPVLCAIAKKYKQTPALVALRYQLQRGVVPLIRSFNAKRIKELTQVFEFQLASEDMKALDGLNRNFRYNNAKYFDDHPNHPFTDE

Molecule	IC50
CC(C)(C)C(=O)C(Oc1ccc(Cl)cc1)n1cncn1 (stereo not drawn)	26.5 µM
CC(C)(C)C(O)(CCc1ccc(Cl)cc1)Cn1cncn1 (stereo not drawn)	~100 µM

We now examine a further molecule.
Asked: Item C=CC1(C)OC(=O)N(c2cc(Cl)cc(Cl)c2)C1=O (stereo not drawn) has what recorded IC50?
Given back: ~100 µM

Each recorded value in this set is attributed to paper PMC5546122.
